Below is a list of entries, each paired with its recorded pIC50 value.
target: HCV NS5B RdRp genotype 1b (Hepatitis C virus genotype 1b, UniProt Q9WMX2); construct: The protein was expressed with an 18 amino acid C-terminal truncation to enhance the solubility; made in house; host or cells: E. coli BL21(DE3), pET21a vector; assay: HCV NS5B RdRp enzyme assay (standard / modified); format: biochemical; details: Table 1; HCV NS5B genotype 1b
Sequence (Q9WMX2 2420-2992): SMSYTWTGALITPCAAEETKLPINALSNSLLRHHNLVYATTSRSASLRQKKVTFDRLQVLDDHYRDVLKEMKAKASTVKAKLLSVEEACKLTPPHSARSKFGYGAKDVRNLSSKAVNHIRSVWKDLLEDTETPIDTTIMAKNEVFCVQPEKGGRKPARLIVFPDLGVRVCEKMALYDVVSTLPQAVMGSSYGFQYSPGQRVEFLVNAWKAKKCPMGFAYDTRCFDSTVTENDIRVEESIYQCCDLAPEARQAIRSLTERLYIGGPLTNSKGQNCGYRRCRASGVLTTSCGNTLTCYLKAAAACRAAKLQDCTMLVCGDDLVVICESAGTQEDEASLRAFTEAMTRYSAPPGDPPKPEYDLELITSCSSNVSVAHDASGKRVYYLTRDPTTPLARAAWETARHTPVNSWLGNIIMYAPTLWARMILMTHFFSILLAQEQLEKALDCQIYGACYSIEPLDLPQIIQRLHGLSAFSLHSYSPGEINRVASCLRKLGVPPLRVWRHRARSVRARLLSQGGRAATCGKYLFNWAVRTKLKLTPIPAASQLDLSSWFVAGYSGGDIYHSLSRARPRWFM
pIC50: −log10 of the molar value.

Recorded pIC50, per entry:
- COMPOUND: "CCN(c1cn2nc(-c3ccc(F)cc3)c(C(=O)NC)c2cc1-c1cc(C(=O)NC2(c3ccccn3)CC2)ccc1C)S(C)(=O)=O"
  pIC50: "6.60 to 8.70"
- COMPOUND: "CNC(=O)c1c(-c2ccc(F)cc2)nn2cc(N(CCO)S(C)(=O)=O)c(-c3cc(C(=O)NC4(c5ccccc5)CC4)ccc3C)cc12"
  pIC50: "6.60 to 8.70"
- COMPOUND: "CNC(=O)c1c(-c2ccc(F)cc2)sc2ccc(-c3cccc(C(=O)NC(C)(C)C)c3)cc12 [drawing 85]"
  pIC50: "< 5.38"
- COMPOUND: "CNC(=O)c1c(-c2ccc(F)cc2)nn2ccc(-c3cc(C(=O)NC4(c5ccccn5)CC4)c(OC)cc3C)c(F)c12 [drawing 135]"
  pIC50: "6.60 to 8.70"

Q) What value of measured pIC50 is listed for CNC(=O)c1c(-c2ccc(F)cc2)nn2cc(N(CCO)S(C)(=O)=O)c(OC)cc12 [drawing 50] ?
A) 5.00 to 6.00

Q) Which value of pIC50 has been reported for `CNC(=O)c1c(-c2ccc(F)cc2)nn2cc(N(CCO)S(C)(=O)=O)c(C3CC3)cc12` in the records?
A) 6.60 to 8.70

Q) For the compound shown here, `CNC(=O)c1c(-c2ccccc2)nn2ccc(-c3cccc(C(=O)NC(C)(C)c4ccccc4)c3)cc12` , give the reported pIC50.
A) 6.60 to 8.70
